system: Crimean-Congo hemorrhagic fever virus L polyprotein viral ovarian tumor (vOTU) protease domain; test: CCHFV vOTU protease inhibitors, primary screen, biochemical, Pep-AMC substrate, fluorescence (AID 651958); conditions: at 11.5 µM, hits give high values; also: 0% = vehicle wells with enzyme and 100% = no enzyme wells
Among all 370,000 compounds or so, about 2,000 (0.54%) were called active. The sample holds actives, similar compounds and a random draw of the others, so the mix is not that of the screen.
recorded_endpoint: inhibition (%)
# number only, unit % dropped from output

Here's what some known entries look like.
1. COC(=O)[C@]12C[C@H](CC(=O)NCc3ccccc3)C(=O)N(CCC3=CCCCC3)C1=C[C@H](C(C)C)O[C@@H]2C1CC1; 23.1
2. CC(=O)Nc1ccc(NC(=O)CSc2nnnn2-c2ccccc2F)cc1; 2.7

Item: `Cc1ccccc1CSc1nnc(-c2ccccc2)c(=O)[nH]1` | inhibition: -2.29

Form field inhibition, entry `Cc1ccc(CSc2nc3[nH]ncc3c(=O)[nH]2)cc1` : -0.35

get_value(item= `Cc1ccc([C@H]2C[C@H](O)[C@@H](n3cc(COC(=O)c4ccccc4)nn3)CN2C(=O)C2CCCCC2)cc1` , readout=inhibition) returns 9.18

So, `Cc1ccc(S(=O)(=O)N2[C@@H](c3ccc(Br)cc3)C(C(=O)O)=C[C@H]2CC2CCCC2)cc1` ? Its inhibition was 34.2

Measured inhibition, `CC(C)(C)NC(=O)CN(C(=O)c1csnn1)c1ccccc1-c1ccccc1` : -7.68

Recorded inhibition (molecule CC1CCCN(c2ccc(C(=O)NCCc3ccccc3)cn2)C1 (centres undefined) ): -7.43

inhibition reading for `CCCCCCN1C[C@@H](O)[C@H](n2cc(COC(=O)c3ccccc3)nn2)C[C@@H]1c1ccc(Cl)cc1` : -5.93

* * *

test system: Crimean-Congo hemorrhagic fever virus L polyprotein viral ovarian tumor (vOTU) protease domain; assay: CCHFV vOTU protease inhibitors, primary screen, biochemical, Pep-AMC substrate, fluorescence (AID 651958); settings: at 11.5 µM, hits give high values; also: 0% = vehicle wells with enzyme and 100% = no enzyme wells
Hit rate of the full screen: of about 370,000 compounds, about 2,000 (0.54%) were called active. Only a selection was taken, and actives are over-represented in it overall.
recorded_endpoint: inhibition (%)
Kindly answer with a numeric value in %, unit omitted.

Looking up `O=C(Nc1ccc(F)cc1)C(=O)c1cn(CC(=O)N2CCOCC2)c2ccccc12` , I found its inhibition recorded as -0.24

The compound `COc1cccc(NC(=O)CS(=O)(=O)c2cn(CC(=O)N3CCOCC3)c3ccccc23)c1` showed inhibition equal to 6.34

Briefly, inhibition measured for `Cc1cc(=O)[nH]c(SCC(=O)Nc2ccc(Cl)cc2C)n1` : -2.3

Reported inhibition of `COC(=O)C1=C(c2cc3ccccc3s2)C[C@@H]2CC[C@H]1N2C(=O)NCCO` : -0.84

Record `Cn1c(=NC(=O)c2ccco2)sc2cccc(F)c21` . Reported inhibition: 5.27

* * *

inhibition reference
system: Crimean-Congo hemorrhagic fever virus L polyprotein viral ovarian tumor (vOTU) protease domain; experiment: CCHFV vOTU protease inhibitors, primary screen, biochemical, Pep-AMC substrate, fluorescence (AID 651958); settings: at 11.5 µM, hits give high values; also: 0% = vehicle wells with enzyme and 100% = no enzyme wells
Out of some 370,000 compounds screened, about 2,000 (0.54%) were called active. This excerpt belongs to a sample that is enriched for actives.
Report the figure in % without appending any unit label.

Here's what some known entries look like.
1. COC(=O)c1ccc(CN2C(=O)[C@]3(OCCC=C[C@H]3C)c3c(Br)cccc32)cc1; 10.2
2. Cc1nc(N)nc(SCc2ccc([N+](=O)[O-])cc2)c1N; -13.9
3. O=C(COc1ccc(Cl)cc1)N1CCN(S(=O)(=O)c2ccc(Cl)cc2)CC1; 9.84
4. Cc1ccc(S(=O)(=O)N[C@H](CO)C(C)C)cc1; 6.27
5. c1ccc(N2Cc3ccccc3-n3nncc3C2)nc1; -2.36

// field: inhibition; key: `O=C(Nc1cc(S(=O)(=O)N2CCOCC2)ccc1N1CCOCC1)c1c(F)cccc1Cl` ; value = 8.3

Entry COc1ccc(S(=O)(=O)NC(C)C(=O)N2CCCCCC2)cc1 (configuration not stated) ; inhibition = -2.68

For reference, reported inhibition for `CCOc1ccccc1NC(=O)c1cc(S(=O)(=O)N2CCC3(CC2)OCCO3)ccc1F` stands at -13.4

inhibition reported for this molecule `O=S(=O)(c1ccc(Sc2nnc3ccccn23)nc1)N1CCOCC1` : -14.3

Looking up `O=C(N/N=C/c1ccc(O)c(O)c1)C1c2ccccc2Oc2ccccc21` , I see its inhibition listed as 4.82

The molecule listed as `Cc1cn(C)c(=O)n(C)c1=O` has a reported inhibition of -10.2

The reported inhibition of the molecule `Oc1ccc(/C=N/Nc2ccc(C(F)(F)F)cn2)cc1O` was 31.3

Form field inhibition, entry CSCCC(NC(=O)COc1ccccc1)C(=O)N1CCN(c2cccc(C(F)(F)F)c2)CC1 (configuration not stated) : 13.9

Quick note, inhibition for `CCN(CC(=O)Nc1ccccc1C(F)(F)F)C(=O)CSCc1c(C)noc1C` landed at -9.14

Given item `CCCCCCCCNS(=O)(=O)/C=C/c1cc(C)ccc1CNC(=O)OC(C)(C)C` , the value recorded as its inhibition is 29.5

inhibition in this record for Cc1ccc(S(=O)(=O)/N=S(\C)C(C)C)cc1 (configuration not stated) : -11.6

GET /value?item= COc1ccc(N2CCN(C3CCCCC3NS(=O)(=O)c3ccccc3)CC2)cc1 (configuration not stated) &field=inhibition returns 19.5

Value of measured inhibition for the entry O=C(OC(C(=O)NC1CCCC1)c1ccc(F)cc1)c1ccno1 (configuration not stated) : -21.1

inhibition recorded for this molecule, CC(C)(C)n1nnnc1C(c1ccccc1F)N1CCN(C(=O)c2ccco2)CC1 (configuration not stated) , is 9.18

// sample `CCOc1cc(NC(=O)CCl)c(OCC)cc1NC(C)=O` , its inhibition was 11.3

For this molecule ( `Cc1cc(F)ccc1S(=O)(=O)Nc1ncnc2scc(-c3ccc(F)cc3)c12` ), measured inhibition is -9.09

Please fill in: inhibition reported for `CCCn1c(=O)c2ccccc2n2c(SCC(=O)/C(C#N)=C(\C)N)nnc12` = -9.66
